Test system: UO-31 renal
assayNotes: NCI-60 one-dose screen, 48 h (100 = growth as untreated, 0 = no growth, -100 = all killed)
conditionsUsed: 10 µM unless noted
This is part of a sample that, as a whole, favours compounds with a hit. Of some 83,000 tested, about 20% had one in any assay.
parameterMeasured: growth (%)
Please reply with the bare figure in % and do not write the unit itself.

Ask: So what's the measured growth for this one? C=CC(=O)N1CCC=C(c2cc3c(N[C@H](C)c4ccccc4)ncnc3[nH]2)C1
Result: 20.5

Ask: Any idea what its growth is? The compound is COc1ccc(C2c3sc4c(C)cccc4c3Oc3nc(CC(=O)Nc4ccccc4)[nH]c(=O)c32)cc1 (stereo not given)
Result: 46.7

Ask: So what's the measured growth for this one? CCn1c(SCC(=O)Nc2cccc(C(=O)/C=C/c3ccc(Br)cc3)c2)nc2ccccc2c1=O
Result: 71.9

Ask: Which growth value is on record for O=C(CN1CCN(c2cc(=O)n(-c3ccccc3)c3ccccc23)CC1)Nc1nc(-c2ccccc2)cs1 ?
Result: 41.6

Ask: Which growth reading was recorded for the compound CCN(CC)c1ccc2c(c1)Oc1nc(N)c(C#N)c(N)c1C2Sc1ccc(C)cc1 (stereo not given) ?
Result: -99.7

###

Test system: HT29 colon
assayNotes: NCI-60 one-dose screen, 48 h (100 = growth as untreated, 0 = no growth, -100 = all killed)
conditionsUsed: 10 µM unless noted
Method: Growth inhibition of the HT29 human tumor cell line is measured as a screen for anti-cancer activity. Cells are grown in 96 well plates and exposed to the test compound for 48 hours. Compounds are tested at a single concentration, which is 10^-5 M for most compounds. The reported endpoint is percent growth (GI% or GIPRCNT), where numbers from 0 - 100% represent growth inhibition, and numbers from -100% - 0 represent cell death. For example, a value of 40 represents 60% growth inhibition. […]
This is part of a sample that, as a whole, favours compounds with a hit. Of some 83,000 tested, about 20% had one in any assay. Activity calls are given as the source filed them. How the source made its calls: active means growth percent below 10; inactive means the rest.
For each of the molecules below, state its growth.

Ask: Provide the documented growth with HT29 colon as the system for O=S(=O)(NCCNc1nccc(-n2cnc3ccccc32)n1)c1ccc(Cl)cc1
Result: 103% (inactive)

Ask: // map COc1ccc(Cn2cc3c(c2-c2cc(OC)c(OC)c(OC)c2)CCc2c(CN4CCCC4)noc2-3)cc1 to recorded growth (system: HT29 colon)
Result: 8.73% (active)

Ask: Please tell me: growth of CCCn1cnc2c(c1=N)C(c1ccc(Cl)cc1)c1sc3c(C)cccc3c1O2 (centres undefined) , system HT29 colon?
Result: 5.11% (active)

Ask: So what growth did NS(=O)(=O)c1ccc(Nc2nc(N/N=C/c3ccc(Cl)cc3)nc(Nc3ccccc3)n2)cc1 get with HT29 colon?
Result: 34.2% (inactive)

Ask: Identify the measured growth of O=C1[C@H]2Cc3c([nH]c4ccccc34)[C@@H](c3c(Cl)cccc3Cl)N2C(=O)CN1C1CCN(CC2CCCCC2)CC1 for HT29 colon.
Result: 20.5% (inactive)

Ask: Request: growth, test system HT29 colon, entry COc1ccc(/C=C(\C#N)C(=O)N2c3ccccc3Sc3ccc(SC)cc32)cc1F
Result: 103% (inactive)

Ask: Look up growth with HT29 colon for this molecule: COc1cccc2c1CN(C(=O)c1ccc(O)c(C(=O)N3Cc4ccc(OCCC[P+](c5ccccc5)(c5ccccc5)c5ccccc5)cc4C3)c1)C2
Result: 100% (inactive)

Ask: Param readout= growth; system= HT29 colon; entry= NC(N)=Nc1ccc(Oc2cccc(Nc3cccc(C(F)(F)F)c3)c2)cn1 ; returns value.
Result: 14.6% (inactive)

Ask: Give growth (HT29 colon) of the following molecule: CC(=O)c1cc(C(=O)c2ccc(Br)cc2)n2cc(C)cc(C)c12
Result: 94.9% (inactive)

Ask: Please provide the recorded growth for CCn1c(SCC(=O)Nc2cccc(C(=O)/C=C/c3cc(OC)c(OC)c(OC)c3)c2)nc2ccccc2c1=O , tested on HT29 colon.
Result: 1.12% (active)

Ask: Value wanted: growth (HT29 colon) of entry CCCCCCCn1cc2c(NCCc3ccccc3)ncnc2n1
Result: 118% (inactive)

Ask: Notebook entry, HT29 colon assay: growth of COc1cc(-c2nn(C(C)(C)C)cc2-c2ccnc(NCCCNS(=O)(=O)c3ccc(C)cc3)n2)ccc1Cl = ?
Result: 78.3% (inactive)

Ask: # returns recorded growth (system: HT29 colon) for CCn1c2ccccc2c2cc(-n3nncc3-c3ccccc3)ccc21
Result: 2.01% (active)

Ask: What growth appears in the records for this molecule with HT29 colon? Cc1nc2ncc(-c3ccc4ncnc(NCc5ccccc5)c4c3)cc2[nH]1
Result: 82.8% (inactive)

Ask: Checklist item: growth tested on HT29 colon, entry O=C(Nc1cccc(C(F)(F)F)c1)c1cc(-c2ccc(F)cc2F)ccc1O , value?
Result: 74.1% (inactive)

Ask: What reported growth corresponds to O=C(Nc1ccc(N=Cc2c(O)[nH]c3ccccc23)cc1)Nc1nccs1 on HT29 colon?
Result: 17.9% (inactive)

Ask: Reported growth for HT29 colon, given Cc1ccc(C(=O)NN2C(=O)/C(=C/C=C/c3ccco3)SC2=S)cc1 ?
Result: 110% (inactive)

Ask: Form: Entry = CC(C)(C)c1ccc(-c2nnc(-c3nc4ccccc4nc3Cl)o2)cc1 | System = HT29 colon | growth = ____
Result: 116% (inactive)

Ask: Find the measured growth: item COc1cc(-c2nc(SC(C)C)n(C(C)C)c(=O)c2C#N)ccc1OCc1ccccc1 , target or system HT29 colon.
Result: 91.2% (inactive)

Ask: // map COc1ccc(CCOc2cc3c(cc2OC)CCN(C(=O)NCc2cocn2)C3c2ccc(C)cc2C)cc1 (centres undefined) to recorded growth (system: HT29 colon)
Result: -2.64% (active)

Ask: Record lookup: for HT29 colon, what growth belongs to CN(C)CCNC(=O)c1ccc(-c2nc3ccc4[nH]ncc4c3c3c2COCC3)cc1 ?
Result: 16.7% (inactive)

Ask: So what growth did COc1ccc(NC2=C(Cl)C(=O)c3nc(C)ccc3C2=O)cc1OC get with HT29 colon?
Result: 110% (inactive)

Ask: Fill in the recorded growth for this molecule, with HT29 colon as test system: CCN(CC)c1ccc2c(c1)Oc1nc(N)c(C#N)c(N)c1C2Sc1ccc(F)cc1 (centres undefined)
Result: -42.4% (active)

Ask: Provide the documented growth with HT29 colon as the system for CCO/C=N/C1=C(C#N)C(c2ccc(OC)cc2)c2sc3c(CC)cccc3c2O1 (centres undefined)
Result: 13.1% (inactive)

Ask: Please state recorded growth (tested on HT29 colon) of COc1ccc(NC(=O)CSc2nnc(-c3ccc4nc(-c5ccccc5)[nH]c4c3)o2)cc1
Result: 108% (inactive)

Ask: Recall the recorded growth for O=C(NNc1nc2cc(F)c(F)cc2n2c(CN3CC4CNCC4C3)ccc12)c1cnccn1 (centres undefined) with HT29 colon and state it.
Result: 26.3% (inactive)

Ask: // lookup growth | system=HT29 colon | key= c1ccc(C(c2nc3ncncc3[nH]2)N2CSc3nc4ncncc4n3C2)cc1 (centres undefined)
Result: 42.7% (inactive)

Ask: growth of COc1cc(C2N=C(NNc3ccccc3)NC(C)=C2C(C)=O)ccc1O (centres undefined) on HT29 colon?
Result: 115% (inactive)

Ask: API: value(readout= growth, system= HT29 colon, query= O=C(NCCN1CCCC1)c1ccc(-c2nc3ccc4[nH]ncc4c3c3c2CCCC3)cc1 )
Result: 4.8% (active)

Ask: Write down the reported growth of Cc1ccc(N2C(=O)/C(=C/C=C/c3ccco3)SC2=S)cc1 , test system: HT29 colon.
Result: 102% (inactive)

Ask: # query: growth | item COc1c(N2CC3CCCNC3C2)c(F)cc2c(=O)c(C(=O)N/N=C/c3c[nH]c4ccccc34)cn(C3CC3)c12 (centres undefined) | system: HT29 colon
Result: 50.5% (inactive)

Ask: What measured growth is associated with NC(N)=Nc1ccc(Oc2cccc(Nc3ccc(Cl)c(C(F)(F)F)c3)c2)cc1 on HT29 colon?
Result: 49% (inactive)

Ask: I'm curious: which growth was measured for Cc1ccc(-c2cc3nc(C(Cl)Cl)nc(C)n3n2)cc1 tested on HT29 colon?
Result: 104% (inactive)

Ask: For HT29 colon, provide growth of O=C(Nc1nc2ccc([N+](=O)[O-])cc2s1)Nc1ccccc1Cl please.
Result: 53.6% (inactive)

Ask: For HT29 colon, provide growth of CS(=O)(=O)Nc1cc(-c2ccc3ncc(C#N)c(NCc4ccccc4O)c3c2)cnc1Cl please.
Result: 15.5% (inactive)

Ask: HT29 colon / growth / N#Cc1cnc2ccc(-c3cnc4[nH]ncc4c3)cc2c1N1CCc2cc(F)c(Cl)cc21 : value?
Result: 2.58% (active)

Ask: Form field: growth recorded for Cc1cccc2c3c(sc12)C(c1ccc(Cl)cc1)c1c(nc(CC(=O)Nc2ccccc2)[nH]c1=O)O3 (centres undefined) with HT29 colon (enter value)
Result: 73.6% (inactive)

Ask: Checklist item: growth tested on HT29 colon, entry CCO/C=N/C1=C(C#N)C(c2ccc(F)cc2)c2sc3c(CC)cccc3c2O1 (centres undefined) , value?
Result: 10.1% (inactive)

Ask: Query for HT29 colon: what growth does the record show for COc1ccc(/C=C/C(=O)c2cc(S(N)(=O)=O)c(OC)cc2OC)cc1 ?
Result: 102% (inactive)
